- target_entity: NanoBiT® HiBiT non-luminescent peptide and LgBiT non-luminescent polypeptide (HiBiT/LgBiT bioluminescent complex) (Oplophorus gracilirostris, UniProt Q9GV45, A31E/A60N/A81I/C191F/D135N/E192K/F58L/F95D/G184S/G42A/G62A/G78A/G94A/G98A/H120P/I103V/I117V/I134L/K70R/L176M/L195S/L54V/L73R/L99Q/M102E/N171T/N193K/P142E/Q151K/Q38E/Q45L/T186S/V71I/Y165I)
- Construct: fused on or other part: N-terminal Met-Val on LgBiT in place of the signal peptide (residues 1-27); The chain is split between residues 184 and 185 into LgBiT and the 11-residue HiBiT peptide (residues 185-195); C-terminal A196 is absent
- Sequence (Q9GV45 other isoform, or with tags, fused parts or gaps with the stated changes): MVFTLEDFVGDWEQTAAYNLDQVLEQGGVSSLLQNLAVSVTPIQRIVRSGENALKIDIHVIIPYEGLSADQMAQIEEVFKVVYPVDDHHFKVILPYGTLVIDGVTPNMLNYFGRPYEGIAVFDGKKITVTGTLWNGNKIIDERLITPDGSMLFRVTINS
- assay_procedure: biochemical
assay_endpoint: IC50
Write down the value, and be sure its unit follows.

# count of solved cases: 5
Which measured IC50 value corresponds to Cc1ccc(NC(=O)c2ccccc2NS(=O)(=O)c2cccc(O)c2)cc1 [JRW-1236] ?
33 nM

Which IC50 value belongs to CCOC(=O)c1cccc(NC(=O)c2ccccc2NS(=O)(=O)c2ccc(C)cc2)c1 [HL-0026] ?
240 nM

Recorded IC50 of COc1ccc(NS(=O)(=O)c2ccc(C)cc2)c(C(=O)Nc2cc3ccccc3s2)c1 [JRW-1167] , please.
20 nM

// IC50 lookup, key: CCCCOc1cccc(S(=O)(=O)Nc2ccccc2C(=O)Nc2ccc(C)cc2)c1 [JRW-1266]
1500 nM

Entry Cc1ccc(NC(=O)c2ccccc2NS(=O)(=O)c2cccc(CCCO)c2)cc1 [JRW-1275] has what IC50?
340 nM

For every record below, what is its IC50?
1. COc1cccc(S(=O)(=O)Nc2ccccc2C(=O)Nc2ccc(C)cc2)c1 [JRW-1205]
2. Cc1ccc(S(=O)(=O)Nc2cc(F)ccc2C(=O)Nc2cc3ccccc3s2)cc1 [JRW-1346]

29 nM
14 nM

Give IC50 for each of the items listed below.
1. Cc1ccc(NC(=O)c2ccccc2NS(=O)(=O)c2ccc(C)cc2)cc1 [HL-0019]
2. Cc1ccc(S(=O)(=O)Nc2ccccc2C(=O)Nc2cccc(Br)c2)cc1 [JRW-1283]
3. COc1cccc(S(=O)(=O)Nc2ccccc2C(=O)Nc2cc3ccccc3s2)c1 [JRW-1230]
4. Cc1ccc(S(=O)(=O)Nc2ccccc2C(=O)Nc2ccc3c(c2)CCCC3)cc1 [HL-0008]
5. Cc1ccc(NC(=O)c2ccccc2NS(=O)(=O)c2ccc(C(F)(F)F)cc2)cc1 [JRW-1284]

29 nM
46 nM
7.8 nM
24 nM
710 nM

----------
- target_entity: NanoBiT® HiBiT non-luminescent peptide and LgBiT non-luminescent polypeptide (HiBiT/LgBiT bioluminescent complex) (Oplophorus gracilirostris, UniProt Q9GV45, A31E/A60N/A81I/C191F/D135N/E192K/F58L/F95D/G184S/G42A/G62A/G78A/G94A/G98A/H120P/I103V/I117V/I134L/K70R/L176M/L195S/L54V/L73R/L99Q/M102E/N171T/N193K/P142E/Q151K/Q38E/Q45L/T186S/V71I/Y165I)
- Construct: fused on or other part: N-terminal Met-Val on LgBiT in place of the signal peptide (residues 1-27); The chain is split between residues 184 and 185 into LgBiT and the 11-residue HiBiT peptide (residues 185-195); C-terminal A196 is absent
- assay_procedure: biochemical
Define the label as yes (1) when IC50 is strictly less than 0.2 µM and as no (0) in all remaining cases.

Examples with answers:
Quick check: does Cc1ccc(NC(=O)c2ccccc2NS(=O)(=O)c2cccc(N)c2)cc1 have IC50 under 0.2 µM?
yes (1)

Please determine if COc1ccc(C(=O)Nc2cc3ccccc3s2)c(NS(=O)(=O)c2ccc(C)cc2)c1 is below 0.2 µM in terms of IC50.
yes (1)

Decide: IC50 of Cc1ccc(S(=O)(=O)Nc2ccc(F)cc2C(=O)Nc2cc3ccccc3s2)cc1 strictly below 0.2 µM?
yes (1)

---
Quick check: does Cc1ccc(NC(=O)c2ccccc2NS(=O)(=O)c2ccc(Br)cc2)cc1 have IC50 under 0.2 µM?
yes (1)

Find out if reported IC50 for O=C(Nc1cc2ccccc2s1)c1ccccc1NS(=O)(=O)c1ccc2c(c1)CCCC2 is less than 0.2 µM
yes (1)

----------
- target_entity: NanoBiT® HiBiT non-luminescent peptide and LgBiT non-luminescent polypeptide (HiBiT/LgBiT bioluminescent complex) (Oplophorus gracilirostris, UniProt Q9GV45, A31E/A60N/A81I/C191F/D135N/E192K/F58L/F95D/G184S/G42A/G62A/G78A/G94A/G98A/H120P/I103V/I117V/I134L/K70R/L176M/L195S/L54V/L73R/L99Q/M102E/N171T/N193K/P142E/Q151K/Q38E/Q45L/T186S/V71I/Y165I)
- Construct: fused on or other part: N-terminal Met-Val on LgBiT in place of the signal peptide (residues 1-27); The chain is split between residues 184 and 185 into LgBiT and the 11-residue HiBiT peptide (residues 185-195); C-terminal A196 is absent
- assay_procedure: biochemical
In this scheme, each record receives a class according to its IC50; the ranges are class 0 = under 100 nM, class 1 = from 100 nM up to 600 nM, class 2 = 600 nM and over

Previously resolved entries follow.
Returns: class label. Input: Cc1ccc(S(=O)(=O)Nc2ccccc2C(=O)Nc2sc3c(c2C#N)CCCC3)cc1 [JRW-1004]
class 0

Hey, which category is COC(=O)[C@H]1CC[C@H](NC(=O)c2ccccc2NS(=O)(=O)c2ccc(C)cc2)CC1 [HL-0009] in, do you know?
class 2

Which of the defined bands does the recorded IC50 of Cc1ccc(NC(=O)c2cc(O)ccc2NS(=O)(=O)c2ccc(C)cc2)cc1 [JRW-1232] sit within?
class 2

Continuing:
Category of Cc1ccc(S(=O)(=O)Nc2cc3ccccc3cc2C(=O)Nc2cc3ccccc3s2)cc1 [HL-0057] :
class 0

Record Cc1ccc(NC(=O)c2ccccc2NS(=O)(=O)c2cccc(OC(F)(F)F)c2)cc1 [JRW-1328] — which class?
class 2

Lab note: which band did COC(=O)CCc1ccc(S(=O)(=O)Nc2ccccc2C(=O)Nc2cc3ccccc3s2)cc1 [HL-0040] land in?
class 1

Which category does the recorded IC50 put Cc1ccc(NC(=O)c2ccccc2NS(=O)(=O)c2cccc(CO)c2)cc1 [JRW-1261] in?
class 1

Lab note: which band did Cc1ccc(S(=O)(=O)Nc2ccccc2C(=O)Nc2ccccc2C#N)cc1 [JRW-1008] land in?
class 1

Using the reported IC50, which band applies to Cc1ccc(S(=O)(=O)Nc2ccccc2C(=O)Nc2cccc(C(C)C)c2)cc1 [HL-0025] ?
class 0
